Reference for the values: paper PMC9482650

Biological target: T1, LNX2_2, Q8N448
T1 sequence (Q8N448 334-432, limits assumed, looked up): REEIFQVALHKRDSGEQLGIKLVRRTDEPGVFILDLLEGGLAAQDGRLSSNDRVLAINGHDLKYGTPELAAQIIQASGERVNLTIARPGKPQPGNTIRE
Assay: holdup assay
Design: key: below the threshold = too weak to quantify, mostly under pKd 3.1 to 4
Details: plain residues with an end cap or a label only (N-terminal biotin on a linker: ado-ado)
Endpoint: pKd
The response must contain the number and no unit.

Look up pKd for this binder: MHIQEKGFHV [EPHA6, Q9UF33] 4.09

Look up pKd for this binder: LESTTVGTSV [KARS1, Q15046] 4.39

Look up pKd for this binder: EDLEDEWEVI [TECPR2, O15040] 4.18
